Data origin, for the record: PubChem BioAssay (NCI)

System: RPMI-8226 leukemia
Assay: NCI tumour cell line growth inhibition, 48 h
endpoint: TGI

Kindly note the recorded TGI for `COC(=O)N/N=C(/CCC(=O)Nc1ccc(C)c(C)c1)CC(=O)C(C)(C)C` , which is > 100 µM

Kindly note the recorded TGI for `O=c1c(NO)c([N+](=O)[O-])cnn1-c1ccccc1` , which is 34 µM

Kindly note the recorded TGI for CC1Cc2cc(O)c(O)cc2-c2cc(O)c(O)cc2CC1C (stereo unspecified) , which is > 100 µM

Kindly note the recorded TGI for `O=[N+]([O-])c1cc(Cl)ccc1OCc1ccccc1` , which is > 100 µM

Kindly note the recorded TGI for `CC(/C=C/c1ccccc1)=N\NC(N)=S` , which is 93.5 µM

Kindly note the recorded TGI for `COc1cc(N2CCN(C(C)C)CC2)ccc1Nc1nc(Nc2cccc(F)c2C(=O)O)c2cc[nH]c2n1` , which is > 25 µM

Kindly note the recorded TGI for `COc1ccc2c(c1)CCCN2S(=O)(=O)c1ccccc1[N+](=O)[O-]` , which is 71.3 µM

Kindly note the recorded TGI for `Cn1c2ccccc2c2c3[nH][nH]c(=O)c3c3c4ccccc4[nH]c3c21` , which is 9.2 µM

Kindly note the recorded TGI for `O=c1c2cc(I)ccc2nc(SCc2n[nH]c(=S)o2)n1Cc1ccccc1` , which is > 100 µM

Kindly note the recorded TGI for O=C1NC(=O)/C(=C/c2ccc(S(=O)(=O)N/N=C\C(O)C(O)C(O)C(O)CO)cc2)N1 (stereo unspecified) , which is > 100 µM

Kindly note the recorded TGI for `CN1CCN(c2nc(NCCCNc3ccnc4cc(Cl)ccc34)c3ccccc3n2)CC1` , which is 7.69 µM

Kindly note the recorded TGI for `CCOC(=O)c1nc2ccccc2nc1Oc1cc(OC)c(OC)c(OC)c1` , which is > 100 µM

Kindly note the recorded TGI for `CN(C)c1ccc(-c2ccc(N(C)C)c3n[se]nc23)c2n[se]nc12` , which is > 100 µM

Kindly note the recorded TGI for `CCN(CC)CCN(Cc1ccc(F)cc1)c1ccc(CO)c(Cl)c1` , which is 75.3 µM

Kindly note the recorded TGI for `N#Cc1c(Cl)nc2ccccc2c1N=[N+]=[N-]` , which is 7.89 µM

Kindly note the recorded TGI for CC(C)(C)OC(=O)C1=C2C=C(O)C=CC2(C)N(Cc2ccccc2)C1=N (stereo unspecified) , which is > 27.1 µM

Kindly note the recorded TGI for `CC(C)(C)OC(=O)c1ccc(NCC2=CC(=O)C=CC2=O)cc1` , which is > 27.1 µM

Kindly note the recorded TGI for COc1ccc2c(c1)CC1c3c(ccc(OC)c3O)CC2N1C (stereo unspecified) , which is 53.2 µM

Kindly note the recorded TGI for C=CC1(NS(=O)(=O)c2ccc(C)cc2)CCC(C(C)(C)C)CC1 (stereo unspecified) , which is > 100 µM

Kindly note the recorded TGI for `C(=N\OCCc1ccccc1)/c1cccnc1` , which is > 100 µM

Kindly note the recorded TGI for CC1(C)C=N[N+]2(C)C3C=CC(CC3)C12 (stereo unspecified) , which is > 100 µM

---

Tested on: NCI-H522 lung
Assay: NCI tumour cell line growth inhibition, 48 h
endpoint: TGI

Kindly note the recorded TGI for CC(=O)C(CN(C)C)C(c1ccccc1)c1c(O)c2ccccc2oc1=O (stereo not drawn) , which is > 100 µM

Kindly note the recorded TGI for `CCOC(=O)c1nc2ccccc2nc1Oc1cc(OC)c(OC)c(OC)c1` , which is > 100 µM

Kindly note the recorded TGI for COC(=O)C1=CN(C2CCCCC2)C2(c3ccccc3)c3ccccc3C(=O)OC(=O)C12 (stereo not drawn) , which is > 100 µM
